# ASSAY NOTES: 50% cytotoxic concentration in MT-4 cells
# Format: cell-based
# COND: human
PROPERTY MEASURED: CC50 (µM)
Answer with a number only, understood to be in µM.

Exercise: Could you tell me which CC50 is on file for Cc1cn([C@H]2C[C@H](N=[N+]=[N-])[C@@H](CO)O2)c(=O)[nH]c1=O [AZT, reference compound] ?
Solution: 70

###

# Test system: HIV
# ASSAY NOTES: Anti-HIV in vitro activity: inhibition of the HIV-induced cytopathic effect in MT-4 cells
# Assay type: cell-based
# COND: Human immunodeficiency virus 1, MT4, read-out: 50% effective concentration (IC50)
List of pIC50 values.
Remember, pIC50 is on a log scale: it is -log10 of the molar concentration.

Cc1cn([C@H]2C[C@H](N=[N+]=[N-])[C@@H](CO)O2)c(=O)[nH]c1=O [AZT, reference compound] :: 7.55

Shift focus to the following entry.
Exercise: Could you tell me which pIC50 is on file for Cc1cn([C@H]2C[C@H](N=[N+]=[N-])[C@@H](COP(=O)(O)OP(=O)(O)OC[C@H]3O[C@@H](n4cc(C)c(=O)[nH]c4=O)C[C@@H]3N=[N+]=[N-])O2)c(=O)[nH]c1=O ?
Solution: 7.51
